// provenance: patent US20160199438A1

Molecular target: T1, human GLP-2 receptor (human, UniProt O95838 1-553)
T1 sequence (looked up): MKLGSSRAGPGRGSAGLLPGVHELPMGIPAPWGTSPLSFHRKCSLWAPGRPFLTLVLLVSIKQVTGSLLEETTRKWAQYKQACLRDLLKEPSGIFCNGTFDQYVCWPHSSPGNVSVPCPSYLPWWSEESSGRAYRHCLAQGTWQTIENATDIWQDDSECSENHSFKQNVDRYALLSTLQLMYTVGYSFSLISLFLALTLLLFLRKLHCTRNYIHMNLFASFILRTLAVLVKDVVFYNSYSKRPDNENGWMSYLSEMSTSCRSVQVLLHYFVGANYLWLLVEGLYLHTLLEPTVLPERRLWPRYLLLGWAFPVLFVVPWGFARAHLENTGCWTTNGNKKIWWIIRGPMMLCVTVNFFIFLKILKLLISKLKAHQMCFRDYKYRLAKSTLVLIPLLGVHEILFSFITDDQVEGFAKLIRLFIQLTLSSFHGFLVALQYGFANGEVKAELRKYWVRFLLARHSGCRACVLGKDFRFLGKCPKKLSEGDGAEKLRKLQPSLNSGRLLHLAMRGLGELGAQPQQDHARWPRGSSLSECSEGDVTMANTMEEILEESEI
Test: cell-based or functional assay
Parameter: Rel EC50 (intracellular cAMP). Scope: all listed entries.
Assay Metric: Rel EC50 (intracellular cAMP) (nM)

>>> observed_measurement("YXEGTFTSDYSIXLDKIAQKAFVQWLIAGGPSSGAPPPS (Aib at positions 2 and 13; K at position 20 conjugated at the epsilon-amino group with ([2-(2-Amino-ethoxy)-ethoxy]-acetyl)2-(γGlu)2-CO-(CH2)16-CO2H; C-terminal primary amide, Synthetic acylated peptide, trifluoroacetate salt) [Example 4]")
405
>>> observed_measurement("YXEGTFTSDYSIXLDKIAQKAXVQWLIAGGPSSGAPPPS (Aib at positions 2 and 13; K at position 20 conjugated at the epsilon-amino group with ([2-(2-Amino-ethoxy)-ethoxy]-acetyl)2-(γGlu)2-CO-(CH2)16-CO2H; 1-Nal at position 22; C-terminal primary amide, Synthetic acylated peptide, trifluoroacetate salt) [Example 7]")
1800
>>> observed_measurement("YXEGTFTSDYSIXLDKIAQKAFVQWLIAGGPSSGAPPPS (Aib at positions 2 and 13; K at position 20 conjugated at the epsilon-amino group with ([2-(2-Amino-ethoxy)-ethoxy]-acetyl)2-(γGlu)1-CO-(CH2)16-CO2H; C-terminal primary amide, Synthetic acylated peptide, trifluoroacetate salt) [Example 3]")
199
>>> observed_measurement("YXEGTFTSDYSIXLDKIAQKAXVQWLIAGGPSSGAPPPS (Aib at positions 2 and 13; K at position 20 conjugated at the epsilon-amino group with ([2-(2-Amino-ethoxy)-ethoxy]-acetyl)2-(γGlu)2-CO-(CH2)18-CO2H; 1-Nal at position 22; C-terminal primary amide, Synthetic acylated peptide, trifluoroacetate salt) [Example 2]")
1610
